# assay.target: α4β1 (Homo sapiens, UniProt P05556+P13612)
# Construct: 100 µl of Jurkat cells (2.5 x 10^6 cells/ml) in DMEM plus BSA
# Sequence (P13612 34-1032): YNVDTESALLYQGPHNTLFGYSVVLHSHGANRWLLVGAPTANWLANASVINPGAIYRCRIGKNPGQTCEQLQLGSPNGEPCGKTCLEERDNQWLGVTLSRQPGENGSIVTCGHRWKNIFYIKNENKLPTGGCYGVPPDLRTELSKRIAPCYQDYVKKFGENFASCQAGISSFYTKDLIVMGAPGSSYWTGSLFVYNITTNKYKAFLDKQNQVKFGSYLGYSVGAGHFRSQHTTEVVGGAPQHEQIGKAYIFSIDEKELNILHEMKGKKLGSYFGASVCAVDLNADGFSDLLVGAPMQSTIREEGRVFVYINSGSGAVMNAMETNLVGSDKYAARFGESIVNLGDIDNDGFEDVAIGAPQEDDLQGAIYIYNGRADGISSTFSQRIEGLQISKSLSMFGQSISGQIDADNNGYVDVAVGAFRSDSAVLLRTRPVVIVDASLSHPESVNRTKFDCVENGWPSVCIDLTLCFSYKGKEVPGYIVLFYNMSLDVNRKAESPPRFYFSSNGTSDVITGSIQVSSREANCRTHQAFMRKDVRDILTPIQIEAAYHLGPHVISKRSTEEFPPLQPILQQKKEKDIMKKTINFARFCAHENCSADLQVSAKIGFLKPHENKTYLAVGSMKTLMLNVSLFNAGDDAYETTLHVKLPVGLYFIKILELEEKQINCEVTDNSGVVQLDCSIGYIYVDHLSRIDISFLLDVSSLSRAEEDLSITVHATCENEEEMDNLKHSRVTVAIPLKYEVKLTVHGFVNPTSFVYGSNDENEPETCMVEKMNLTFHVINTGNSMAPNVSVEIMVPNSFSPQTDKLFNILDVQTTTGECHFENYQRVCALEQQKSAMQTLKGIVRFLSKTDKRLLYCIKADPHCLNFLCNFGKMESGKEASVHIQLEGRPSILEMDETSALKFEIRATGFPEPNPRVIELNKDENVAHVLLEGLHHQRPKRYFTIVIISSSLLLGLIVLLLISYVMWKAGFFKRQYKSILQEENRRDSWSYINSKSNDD
# Sequence (P05556 21-798): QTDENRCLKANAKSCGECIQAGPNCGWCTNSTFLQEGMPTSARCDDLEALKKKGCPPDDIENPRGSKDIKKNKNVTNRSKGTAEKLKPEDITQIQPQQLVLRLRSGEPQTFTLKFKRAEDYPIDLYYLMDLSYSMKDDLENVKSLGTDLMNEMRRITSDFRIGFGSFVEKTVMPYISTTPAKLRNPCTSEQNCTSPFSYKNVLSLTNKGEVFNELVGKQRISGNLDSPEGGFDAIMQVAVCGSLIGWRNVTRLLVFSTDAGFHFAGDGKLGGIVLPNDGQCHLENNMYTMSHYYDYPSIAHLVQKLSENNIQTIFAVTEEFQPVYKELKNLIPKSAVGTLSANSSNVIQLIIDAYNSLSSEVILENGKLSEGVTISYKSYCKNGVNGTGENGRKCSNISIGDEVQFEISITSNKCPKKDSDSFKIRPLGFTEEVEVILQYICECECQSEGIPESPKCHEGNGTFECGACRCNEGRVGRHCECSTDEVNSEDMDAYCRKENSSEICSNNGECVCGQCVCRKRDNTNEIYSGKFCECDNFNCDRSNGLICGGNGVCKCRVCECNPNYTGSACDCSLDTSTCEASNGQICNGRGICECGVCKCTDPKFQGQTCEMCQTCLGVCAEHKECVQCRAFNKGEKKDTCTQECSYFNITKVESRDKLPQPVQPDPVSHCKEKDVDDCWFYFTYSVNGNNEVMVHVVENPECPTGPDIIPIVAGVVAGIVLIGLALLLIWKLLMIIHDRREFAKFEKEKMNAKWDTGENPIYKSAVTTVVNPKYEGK
# assay.details: Jurkat-CS-1 assay
# assay.conditions: Jurkat cell adhesion to immobilized CS-1 derived peptide
In this section, each of the compounds is paired with its reported IC50.

O=C(O)c1cncc(C(=O)NC2(C(=O)N[C@@H](Cc3ccc(NC(=O)c4c(Cl)cccc4Cl)cc3)C(=O)O)CCCCC2)c1 [Example 59]
80 to 500 nM
O=C(Nc1ccc(CC(NC(=O)C2CCCCC2NC(=O)C2CCOC2)C(=O)O)cc1)c1c(Cl)cccc1Cl (stereo not drawn) [Example 87]
80 to 500 nM

API: value(readout=IC50, system=α4β1 (Homo sapiens, UniProt P05556+P13612)) for record O=C(NC1(C(=O)N[C@@H](Cc2ccc(NC(=O)c3c(Cl)cccc3Cl)cc2)C(=O)O)CCCCC1)c1cc(O)c2ccccc2n1 [Example 64]
80 to 500 nM

====

# assay.target: α4β1 (Homo sapiens, UniProt P05556+P13612)
# Construct: 100 µl of Jurkat cells (2.5 x 10^6 cells/ml) in DMEM plus BSA
# assay.details: Jurkat-CS-1 assay
# assay.conditions: Jurkat cell adhesion to immobilized CS-1 derived peptide
pIC50: −log10 of the molar value.
In this section, each of the compounds is paired with its reported pIC50.

CC(=O)CCC(=O)NC1(C(=O)N[C@@H](Cc2ccc(NC(=O)c3c(Cl)cccc3Cl)cc2)C(=O)O)CCCCC1 [Example 53]
≥ 7.10
CC(=O)[C@@H]1C[C@H](C(=O)N[C@@H](Cc2ccc(NC(=O)c3cccnc3Cl)cc2)C(=O)O)C1(C)C [Example 105]
6.30 to 7.10
CC(=O)[C@H]1C[C@H](C(=O)N[C@@H](Cc2ccc(NC(=O)c3ccc(Cl)nc3Cl)cc2)C(=O)O)C1(C)C [Example 106]
6.30 to 7.10
CC(=O)[C@@H]1C[C@H](C(=O)N[C@@H](Cc2ccc(NC(=O)c3c(Cl)cccc3Cl)cc2)C(=O)O)C1(C)C [Example 97]
≥ 7.10
COCCC(=O)NC1(C(=O)N[C@@H](Cc2ccc(NC(=O)c3c(Cl)cccc3Cl)cc2)C(=O)O)CCCCC1 [Example 51]
≥ 7.10

Look up pIC50: CC1=C(C(=O)N[C@@H](Cc2ccc(NC(=O)c3c(Cl)cccc3Cl)cc2)C(=O)O)C(C)(C)CC/C1=C\C#N [Example 120]
≥ 7.10

Another compound: O=C(O)c1ccc(C(=O)NC2CCCCC2C(=O)NC(Cc2ccc(NC(=O)c3c(Cl)cccc3Cl)cc2)C(=O)O)nc1 (stereo not shown) [Example 81]
6.30 to 7.10

====

In this section, each of the compounds is paired with its reported IC50.
# assay.target: α4β1 integrin (Homo sapiens, UniProt P05556+P13612)
# Construct: a T-cell line, Jurkat, known to express the α4β1 integrin
# Sequence (P13612 34-1032): as the sequence (P13612 34-1032) above
# Sequence (P05556 21-798): as the sequence (P05556 21-798) above
# assay.details: Jurkat-Endothelial Cell Adhesion Assay (Jurkat EC)
# assay.conditions: Jurkat cell adhesion to IL-1 stimulated endothelial cell monolayers
Structures can show the parent of a compound that is named as a salt.

Take a look at these entries with their results.
CC(=O)[C@@H]1C[C@@H](C(=O)N[C@@H](Cc2ccc(NC(=O)c3c(Cl)cccc3Cl)cc2)C(=O)O)C1(C)C [Example 100]
0.8 to 5 µM
O=C(NC1CCCCC1C(=O)NC(Cc1ccc(NC(=O)c2c(Cl)cccc2Cl)cc1)C(=O)O)c1cc(O)c2ccccc2n1 (stereo not shown) [Example 82]
≤ 0.8 µM
O=C(Nc1ccc(CC(NC(=O)C2CCCCC2NC(=O)C2NC(C(=O)O)CS2)C(=O)O)cc1)c1c(Cl)cccc1Cl (stereo not shown) [Example 84]
≤ 0.8 µM
O=C(NC1(C(=O)N[C@@H](Cc2ccc(NC(=O)c3c(Cl)cccc3Cl)cc2)C(=O)O)CCCCC1)c1cc(C(=O)O)[nH]n1 [Example 65]
0.8 to 5 µM

Look up IC50: O=C(O)c1cncc(C(=O)NC2(C(=O)N[C@@H](Cc3ccc(NC(=O)c4c(Cl)cccc4Cl)cc3)C(=O)O)CCCCC2)c1 [Example 59]
0.8 to 5 µM

Another compound: O=C(O)/C=C1\CCCc2cc(C(=O)N[C@@H](Cc3ccc(NC(=O)c4c(Cl)cccc4Cl)cc3)C(=O)O)ccc21 [Example 135, sodium salt]
5 to 10 µM

Another compound: O=C(Nc1ccc(CC(NC(=O)C2CCCCC2NC(=O)C2CCCO2)C(=O)O)cc1)c1c(Cl)cccc1Cl (stereo not shown) [Example 86]
≤ 0.8 µM

Another compound: COc1ccc(C(=O)NC2(C(=O)N[C@@H](Cc3ccc(NC(=O)c4c(Cl)cccc4Cl)cc3)C(=O)O)CCCCC2)cc1OC [Example 55]
0.8 to 5 µM

Another compound: CC1(C)CC(C(=O)O)CC/C1=C\C(=O)N[C@@H](Cc1ccc(NC(=O)c2c(Cl)cccc2Cl)cc1)C(=O)O (stereo partly shown) [Example 128]
0.8 to 5 µM

Another compound: CC(O)[C@@H]1C[C@H](CC(=O)N[C@@H](Cc2ccc(NC(=O)c3c(Cl)cccc3Cl)cc2)C(=O)O)C1(C)C (stereo partly shown) [Example 92]
0.8 to 5 µM

====

# assay.target: α4β1 integrin (Homo sapiens, UniProt P05556+P13612)
# Construct: a T-cell line, Jurkat, known to express the α4β1 integrin
# assay.details: Jurkat-Endothelial Cell Adhesion Assay (Jurkat EC)
# assay.conditions: Jurkat cell adhesion to IL-1 stimulated endothelial cell monolayers
In this section, each of the molecules is paired with its reported IC50.

Take a look at these entries with their results.
O=C(O)/C=C1/CCCc2c(C(=O)N[C@@H](Cc3ccc(NC(=O)c4c(Cl)cccc4Cl)cc3)C(=O)O)cccc21 [Example 131]
≤ 800 nM
CC1=C(C(=O)N[C@@H](Cc2ccc(NC(=O)c3c(Cl)cccc3Cl)cc2)C(=O)O)C(C)(C)CC/C1=C\C#N [Example 120]
≤ 800 nM
O=C(/C=C/c1ccc(C(=O)O)cc1)N[C@@H](Cc1ccc(NC(=O)c2c(Cl)cccc2Cl)cc1)C(=O)O [Example 123]
5000 to 10000 nM

Could you now consider this next molecule?
Look up IC50: O=C(O)CCC(=O)NC1(C(=O)N[C@@H](Cc2ccc(NC(=O)c3c(Cl)cccc3Cl)cc2)C(=O)O)CCCCC1 [Example 46]
800 to 5000 nM

====

# assay.target: α4β1 integrin (Homo sapiens, UniProt P05556+P13612)
# Construct: a T-cell line, Jurkat, known to express the α4β1 integrin
# assay.details: Jurkat-Endothelial Cell Adhesion Assay (Jurkat EC)
# assay.conditions: Jurkat cell adhesion to IL-1 stimulated endothelial cell monolayers
pIC50: −log10 of the molar value.
In this section, each of the molecules is paired with its reported pIC50.

Take a look at these entries with their results.
O=C(N[C@@H](Cc1ccc(NC(=O)c2c(Cl)cccc2Cl)cc1)C(=O)O)c1cccc(NC(=O)C2CCCC(C(=O)O)C2)c1 (stereo partly drawn)
5.30 to 6.10
CC1(C)[C@H](CC(=O)N[C@@H](Cc2ccc(NC(=O)c3c(Cl)cccc3Cl)cc2)C(=O)O)C[C@@H]1C(=O)O
5.00 to 5.30

Look up pIC50: O=C(O)c1cccc(C(=O)N[C@H]2CCCC[C@H]2C(=O)N[C@@H](Cc2ccc(NC(=O)c3c(Cl)cccc3Cl)cc2)C(=O)O)n1 (relative stereo)
5.30 to 6.10

====

# assay.target: α4β1 integrin (Homo sapiens, UniProt P05556+P13612)
# Construct: a T-cell line, Jurkat, known to express the α4β1 integrin
# assay.details: Jurkat-Endothelial Cell Adhesion Assay (Jurkat EC)
# assay.conditions: Jurkat cell adhesion to IL-1 stimulated endothelial cell monolayers
readout.name: IC50

API: value(readout=IC50, system=α4β1 integrin (Homo sapiens, UniProt P05556+P13612)) for record `CC1=C(C(=O)N[C@@H](Cc2ccc(NC(=O)c3c(Cl)cccc3Cl)cc2)C(=O)O)C(C)(C)CC/C1=C\C(=O)O`
≤ 800 nM

Another compound: CC1(C)[C@@H](C(=O)N[C@@H](Cc2ccc(OCc3c(Cl)cccc3Cl)cn2)C(=O)O)C[C@H]1C(=O)O (relative stereo)
800 to 5000 nM

Another compound: O=C(NC1CCCCC1C(=O)NC(Cc1ccc(NC(=O)c2c(Cl)cccc2Cl)cc1)C(=O)O)c1ccc([N+](=O)[O-])o1 (stereo not drawn)
≤ 800 nM

====

# assay.target: α4β1 (Homo sapiens, UniProt P05556+P13612)
# Construct: 100 µl of Jurkat cells (2.5 x 10^6 cells/ml) in DMEM plus BSA; host or cells: Jurkat T-cell line
# assay.details: Jurkat-CS-1 assay
# Format: cell-based
# assay.conditions: Jurkat cell adhesion to immobilized CS-1 derived peptide
readout.name: IC50

API: value(readout=IC50, system=α4β1 (Homo sapiens, UniProt P05556+P13612)) for record O=C(Nc1ccc(C[C@H](NC(=O)[C@H]2CC[C@@H](C(=O)O)C2)C(=O)O)cc1)c1c(Cl)cccc1Cl (mixture of isomers) [Example 112]
80 to 500 nM

Another molecule: O=C(Nc1ccc(C[C@H](NC(=O)N2CCCC(C(=O)O)C2)C(=O)O)cc1)c1c(Cl)cccc1Cl (some centres unmarked) [Example 115]
80 to 500 nM

Another molecule: CC1(C)[C@H](C(=O)O)C[C@H]1C(=O)N[C@@H](Cc1ccc(NC(=O)c2c(Cl)cccc2Cl)cc1)C(=O)O [Example 102]
80 to 500 nM

Another molecule: O=C(Nc1ccc(C[C@H](NC(=S)N2CCCC(C(=O)O)C2)C(=O)O)cc1)c1c(Cl)cccc1Cl (some centres unmarked) [Example 117]
80 to 500 nM

Another molecule: O=C(/C=C/c1ccc(C(=O)O)cc1)N[C@@H](Cc1ccc(NC(=O)c2c(Cl)cccc2Cl)cc1)C(=O)O [Example 123]
500 to 1000 nM
